Recorded MetHb % (n = 3) for the following compounds
Test system: methemoglobin in blood samples of three healthy volunteers
Test Description: Toxicity on methemoglobin in vitro (whole blood with S9 and NADPH, absorbance at 630 nm)
Format: cell-based, human
Experimental Context: 500 μM compound; whole blood + S9 + NADPH; 5 hours at 37° C.

Compound	Assay Target	MetHb % (n = 3) (%)
CCCC[C@H](CN(O)C=O)C(=O)N1CC2(CC2)C[C@H]1c1nc2ccccc2[nH]1	methemoglobin in blood samples of three healthy volunteers	1.12
CCCC[C@H](CN(O)C=O)C(=O)N1CC2(CC2)C[C@H]1C(=O)Nc1ncc(C)s1	methemoglobin in blood samples of three healthy volunteers	2.25
CCCC[C@H](CN(O)C=O)C(=O)N1CC2(CC2)C[C@H]1C(=O)Nc1ccc(F)c[n+]1[O-]	methemoglobin in blood samples of three healthy volunteers	3.32
CCCC[C@H](CN(O)C=O)C(=O)N1CC2(CC2)C[C@H]1c1nnc(-c2ccccn2)o1	methemoglobin in blood samples of three healthy volunteers	1.22
CCCC[C@H](CN(O)C=O)C(=O)N1CCC[C@H]1C(=O)Nc1ccc(F)c[n+]1[O-] [LBM415, reference compound]	methemoglobin in blood samples of three healthy volunteers	3.05
CCCC[C@H](CN(O)C=O)C(=O)N1CC2(CC2)C[C@H]1c1nnc2ccccn12	methemoglobin in blood samples of three healthy volunteers	1.15
CCCC[C@H](CN(O)C=O)C(=O)N1CC2(CC2)C[C@H]1C(=O)Nc1cccc(Nc2ncccn2)c1	methemoglobin in blood samples of three healthy volunteers	4.12
CCCC[C@H](CN(O)C=O)C(=O)N1CC2(CC2)C[C@H]1c1nc(-c2cccnc2)no1	methemoglobin in blood samples of three healthy volunteers	1.26
CCCC[C@H](CN(O)C=O)C(=O)N1CC2(CC2)C[C@H]1C(=O)Nc1cccc(-c2cccnc2)c1	methemoglobin in blood samples of three healthy volunteers	2.24
CCCC[C@H](CN(O)C=O)C(=O)N1CC2(CC2)C[C@H]1C(=O)Nc1cc(C(C)(C)C)on1	methemoglobin in blood samples of three healthy volunteers	3.33
CCCC[C@H](CN(O)C=O)C(=O)N1CC2(CC2)C[C@H]1C(=O)Nc1nccc(-c2cccnc2)n1	methemoglobin in blood samples of three healthy volunteers	1.13
